molecular target: PDGF-BB (platelet-derived growth factor BB) (Homo sapiens) (UniProt P01127); test: filter; conditions: Bn-dU; 2'-OMe Bn-U1; Heg5; 2'-OMe A3, A11, A21, G24
Sequence (P01127 82-190): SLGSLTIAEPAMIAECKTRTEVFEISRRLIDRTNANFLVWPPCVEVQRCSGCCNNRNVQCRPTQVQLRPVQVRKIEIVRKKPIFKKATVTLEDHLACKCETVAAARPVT
pKd: −log10 of the molar value.
METRIC: pKd

Entry under review: TTACGTTACACGCGTTTATAGCG [4149-8_305] . Reported pKd?
< 8.00

* * *

molecular target: PDGF-BB (platelet-derived growth factor BB) (Homo sapiens); assay: filter; conditions: NapdU at P; 2'-OMe 10
METRIC: pKd
Scale for pKd: -log10 of concentration given in mol/L; no unit attached.

Entry under review: CGACAGCATGTATGCACATCT [5169-4_41] . Reported pKd?
10.01

* * *

target: PDGF-BB (platelet-derived growth factor BB) (Homo sapiens); assay: filter; conditions: Bn-dU; 2Nap-dU8; Heg5; 2'-OMe A3, A11, A21, G24
pKd: −log10 of the molar value.
METRIC: pKd

Entry under review: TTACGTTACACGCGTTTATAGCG [4149-8_186] . Reported pKd?
< 8.00

* * *

biological target: PDGF-BB (platelet-derived growth factor BB) (Homo sapiens) (UniProt P01127); test: filter; details: as 4149-8_379; PS 9,15
METRIC: pKd
Scale for pKd: -log10 of concentration given in mol/L; no unit attached.

Which measured pKd belongs to TTACGTTACCGCGTTTATAGCG [4149-8_434] , tested on PDGF-BB (platelet-derived growth factor BB) (Homo sapiens) (UniProt P01127)?
10.49

* * *

biological target: PDGF-BB (platelet-derived growth factor BB) (Homo sapiens) (UniProt P01127); assay: filter; conditions: NapdU at P; 2'-OMe 11
METRIC: Kd (nM)
Number in nM, nothing else.

Which measured Kd belongs to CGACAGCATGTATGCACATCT [5169-4_50] , tested on PDGF-BB (platelet-derived growth factor BB) (Homo sapiens) (UniProt P01127)?
0.047

* * *

target: PDGF-BB (platelet-derived growth factor BB) (Homo sapiens); experiment: filter; conditions: C3 spacer at 1; NapdU at 9,11,13,19,21; C3 spacer walk
METRIC: pKd
Scale for pKd: -log10 of concentration given in mol/L; no unit attached.

Which measured pKd belongs to GACAGCATGTATGCACATCT [5169-4_59] , tested on PDGF-BB (platelet-derived growth factor BB) (Homo sapiens)?
10.28

* * *

System: VEGF-121 (Homo sapiens), P15692-9
Sequence: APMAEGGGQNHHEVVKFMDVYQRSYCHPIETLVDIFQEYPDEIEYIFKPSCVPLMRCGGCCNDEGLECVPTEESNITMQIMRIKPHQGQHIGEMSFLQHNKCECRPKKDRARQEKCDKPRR
Experiment: filter
Details: as 4867-31_192; 2'-OMe 1; PS 24,25
METRIC: Kd (nM)
Number in nM, nothing else.

Entry under review: CCGTTCAAGTGCTTGTAGGATTTAAATGG [4867-31_480] . Reported Kd?
0.028

* * *

target: PDGF-BB (platelet-derived growth factor BB) (Homo sapiens) (UniProt P01127); assay: filter; settings: as 4149-8_379; NapdU 16; PS 9,15,17
METRIC: Kd (nM)
Number in nM, nothing else.

Entry under review: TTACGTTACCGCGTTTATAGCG [4149-8_431] . Reported Kd?
0.043

* * *

target: PDGF-BB (platelet-derived growth factor BB) (Homo sapiens) (UniProt P01127); test: filter; conditions: NapdU at P; 2'-OMe 12
METRIC: Kd (nM)
Number in nM, nothing else.

Which measured Kd belongs to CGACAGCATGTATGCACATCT [5169-4_46] , tested on PDGF-BB (platelet-derived growth factor BB) (Homo sapiens) (UniProt P01127)?
0.093

* * *

molecular target: PDGF-BB (platelet-derived growth factor BB) (Homo sapiens); test: filter; conditions: NapdU at P; 2'-OMe 15
METRIC: pKd
Scale for pKd: -log10 of concentration given in mol/L; no unit attached.

Entry under review: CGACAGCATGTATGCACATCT [5169-4_36] . Reported pKd?
10.55

* * *

Test system: VEGF-165 (Homo sapiens), P15692-4
Sequence: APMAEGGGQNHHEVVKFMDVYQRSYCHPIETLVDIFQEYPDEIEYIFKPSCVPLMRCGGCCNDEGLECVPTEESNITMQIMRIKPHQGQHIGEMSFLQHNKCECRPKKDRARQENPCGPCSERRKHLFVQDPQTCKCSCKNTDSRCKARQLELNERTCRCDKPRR
Assay: filter
Settings: NapdU at 6,7,12,15,16,18,23,24,25,29; rest DNA; SB18T, 37 C
METRIC: pKd
Scale for pKd: -log10 of concentration given in mol/L; no unit attached.

Which measured pKd belongs to AGCCGTTCAAGTGCTTGTAGGATTTAAATGGA [4867-31_43] , tested on VEGF-165 (Homo sapiens), P15692-4?
10.30

* * *

molecular target: PDGF-BB (platelet-derived growth factor BB) (Homo sapiens) (UniProt P01127); experiment: filter; conditions: as 5169-4_146; PS 6; 3' inverted dT
METRIC: Kd (nM)
Number in nM, nothing else.

Entry under review: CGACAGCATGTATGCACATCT [5169-4_178] . Reported Kd?
0.011

* * *

biological target: PDGF-BB (platelet-derived growth factor BB) (Homo sapiens); assay: filter; settings: BndU; NapdU 16; 2'-OMe 3,7,12,13,18,19,21,24; PS 8,9,15,16,17; Heg 5; C3 11
METRIC: pKd
Scale for pKd: -log10 of concentration given in mol/L; no unit attached.

Which measured pKd belongs to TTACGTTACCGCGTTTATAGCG [4149-8_455] , tested on PDGF-BB (platelet-derived growth factor BB) (Homo sapiens)?
10.77

* * *

target: PDGF-AB (UniProt P04085+P01127); experiment: filter; details: BndU at 1,2,8,12,13,21,22,23,25; rest DNA
METRIC: Kd
# answer = value followed by unit

Entry under review: TTACGACTACGTTACACGCGTTTATAGC [4149-8_39] . Reported Kd?
0.0476 nM

* * *

target: PDGF-BB (platelet-derived growth factor BB) (Homo sapiens) (UniProt P01127); assay: filter; settings: C3 spacer at 18; NapdU at 9,11,13,19,21; C3 spacer walk
METRIC: Kd

Entry under review: CGACAGCATGTATGCACTCT [5169-4_76] . Reported Kd?
1.3 nM

* * *

biological target: PDGF-BB (platelet-derived growth factor BB) (Homo sapiens) (UniProt P01127); assay: filter; conditions: as 5169-4_146 plus PS 3' of P9; 3'-idT; 1.8-fold weaker than parent
METRIC: Kd (nM)
Number in nM, nothing else.

Entry under review: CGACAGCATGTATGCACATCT [5169-4_154] . Reported Kd?
0.026

* * *

biological target: PDGF-BB (platelet-derived growth factor BB) (Homo sapiens) (UniProt P01127); experiment: filter; conditions: VEGF-1Heg-PDGF; NapdU, BndU
METRIC: pKd
Scale for pKd: -log10 of concentration given in mol/L; no unit attached.

Entry under review: CCGTTCAAGTGCTTTAGATTTAAATGGTTACGTTACACGCGTTTATAGC [4149-8_314] . Reported pKd?
9.87

* * *

The sequences listed here are annotated with their pKd.
System: VEGF-121 (Homo sapiens), P15692-9
Sequence: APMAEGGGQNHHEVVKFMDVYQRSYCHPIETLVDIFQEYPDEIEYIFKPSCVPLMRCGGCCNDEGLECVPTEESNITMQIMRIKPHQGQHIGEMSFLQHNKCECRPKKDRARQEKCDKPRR
Test: filter
Settings: P=Nap-dU
Scale for pKd: -log10 of concentration given in mol/L; no unit attached.

Known pKd results, listed for orientation:
# RESIDUE_CODES, METRIC, EXPERIMENTAL_RESULT
rows = [
    ("CCGTTCAAGTGCTTGTACGATTTAAATGGA [4867-31_152]", "pKd", 9.49),
    ("CCGTTCAAGTGCTTATAGGATTTAAATGGA [4867-31_148]", "pKd", 9.28),
    ("CCGTTCAAGTGCTTGTATGATTTAAATGGA [4867-31_153]", "pKd", 9.68),
    ("AGCCGTTCAAGTGCTTGTAGGATTTAAATGGAA [4867-31_37]", "pKd", 9.68),
    ("CAGCCGTTCAAGTGCTTGTAGGATTTAAATGGAAT [4867-31_30]", "pKd", 8.85),
]

Entry under review: CCGTTAAAGTGCTTGTAGGATTTAAATGGA [4867-31_145] . Reported pKd?
8.51

Entry under review: CCGTTCAAGTGCTTCTAGGATTTAAATGGA [4867-31_149] . Reported pKd?
9.57

Entry under review: TCAGCCGTTCAAGTGCTTGTAGGATTTAAATGGA [4867-31_41] . Reported pKd?
9.20

Entry under review: AGCCGTTAAGTGCTTGTAGGATTTAAATGGA [4867-31_101] . Reported pKd?
8.23

Entry under review: AATCAGCCGTTCAAGTGCTTGTAGGATTTAAATGGAA [4867-31_33] . Reported pKd?
9.26

Entry under review: ATCAGCCGTTCAAGTGCTTGTAGGATTTAAATGGAA [4867-31_34] . Reported pKd?
9.33
